System: MRSA ATCC BAA 1556 (USA300)
test summary: In-house broth microdilution MIC screening
Format: cell-based, Staphylococcus aureus
condition: Staphylococcus aureus; broth microdilution; read-out: MIC Value, MRSA ATCC BAA 1556
measured metric: MIC (µg/mL)

| compound | measured metric | endpoint value |
| --- | --- | --- |
| CCCCCCCCCCCC(=O)OCCNC1(C)CC(OC2C(Oc3c4cc5cc3Oc3ccc(cc3Cl)C(O)C3NC(=O)C(NC(=O)C5NC(=O)C(CC(N)=O)NC(=O)C(NC(=O)C(CC(C)C)NC)C(O)c5ccc(c(Cl)c5)O4)c4ccc(O)c(c4)-c4c(O)cc(O)cc4C(C(=O)O)NC3=O)OC(CO)C(O)C2O)OC(C)C1O (stereo not shown) | MIC | 0.094 |
| CCCCCCCCCCOC(=O)CNC1(C)CC(OC2C(Oc3c4cc5cc3Oc3ccc(cc3Cl)C(O)C3NC(=O)C(NC(=O)C5NC(=O)C(CC(N)=O)NC(=O)C(NC(=O)C(CC(C)C)NC)C(O)c5ccc(c(Cl)c5)O4)c4ccc(O)c(c4)-c4c(O)cc(O)cc4C(C(=O)O)NC3=O)OC(CO)C(O)C2O)OC(C)C1O (stereo not shown) | MIC | 0.25 |
| CNC(CC(C)C)C(=O)NC1C(=O)NC(CC(N)=O)C(=O)NC2C(=O)NC3C(=O)NC(C(=O)NC(C(=O)O)c4cc(O)cc(O)c4-c4cc3ccc4O)C(O)c3ccc(c(Cl)c3)Oc3cc2cc(c3OC2OC(CO)C(O)C(O)C2OC2CC(C)(NCCN)C(O)C(C)O2)Oc2ccc(cc2Cl)C1O (stereo not shown) | MIC | 2 |
| CCCCCCCC(=O)NCCNC1(C)CC(OC2C(Oc3c4cc5cc3Oc3ccc(cc3Cl)C(O)C3NC(=O)C(NC(=O)C5NC(=O)C(CC(N)=O)NC(=O)C(NC(=O)C(CC(C)C)NC)C(O)c5ccc(c(Cl)c5)O4)c4ccc(O)c(c4)-c4c(O)cc(O)cc4C(C(=O)O)NC3=O)OC(CO)C(O)C2O)OC(C)C1O (stereo not shown) | MIC | 0.125 |

====

Tested on: S. aureus
test summary: Expanded panel broth microdilution MIC/MBC
condition: Staphylococcus aureus, NRS22 / VISA, S. aureus NRS22, VISA
measured metric: MIC (µg/mL)

| molecule | endpoint value |
| --- | --- |
| CCCCCCCCCCNCCN[C@@]1(C)C[C@H](O[C@H]2[C@H](Oc3c4cc5cc3Oc3ccc(cc3Cl)[C@@H](O)[C@@H](NC(=O)[C@@H](CC(C)C)NC)C(=O)N[C@@H](CC(N)=O)C(=O)N[C@H]5C(=O)N[C@H]3C(=O)N[C@H](C(=O)N[C@H](C(=O)O)c5cc(O)cc(O)c5-c5cc3ccc5O)[C@H](O)c3ccc(c(Cl)c3)O4)O[C@H](CO)[C@@H](O)[C@@H]2O)O[C@@H](C)[C@H]1O | 0.06 |
| CN[C@H](CC(C)C)C(=O)N[C@H]1C(=O)N[C@@H](CC(N)=O)C(=O)N[C@H]2C(=O)N[C@H]3C(=O)N[C@H](C(=O)N[C@H](C(=O)O)c4cc(O)cc(O)c4-c4cc3ccc4O)[C@H](O)c3ccc(c(Cl)c3)Oc3cc2cc(c3O[C@@H]2O[C@H](CO)[C@@H](O)[C@H](O)[C@H]2O[C@H]2C[C@](C)(N)[C@H](O)[C@H](C)O2)Oc2ccc(cc2Cl)[C@H]1O | 4 |
| CCCCCCCCCCNC(=O)CNC1(C)CC(OC2C(Oc3c4cc5cc3Oc3ccc(cc3Cl)C(O)C3NC(=O)C(NC(=O)C5NC(=O)C(CC(N)=O)NC(=O)C(NC(=O)C(CC(C)C)NC)C(O)c5ccc(c(Cl)c5)O4)c4ccc(O)c(c4)-c4c(O)cc(O)cc4C(C(=O)O)NC3=O)OC(CO)C(O)C2O)OC(C)C1O (stereo not shown) | 0.12 |
| CCCCCCCCCCNCCN[C@@]1(C)C[C@H](O[C@H]2[C@H](Oc3c4cc5cc3Oc3ccc(cc3Cl)[C@@H](O)[C@@H](NC(=O)[C@@H](CC(C)C)NC)C(=O)N[C@@H](CC(N)=O)C(=O)N[C@H]5C(=O)N[C@H]3C(=O)N[C@H](C(=O)N[C@H](C(=O)O)c5cc(O)c(CNCP(=O)(O)O)c(O)c5-c5cc3ccc5O)[C@H](O)c3ccc(c(Cl)c3)O4)O[C@H](CO)[C@@H](O)[C@@H]2O)O[C@@H](C)[C@H]1O | 0.5 |

====

Tested on: MRSA ATCC BAA 1556 (USA300)
test summary: In-house broth microdilution MIC screening
Assay type: cell-based, Staphylococcus aureus
condition: Staphylococcus aureus; broth microdilution; read-out: MIC Value, MRSA ATCC BAA 1556
Below, each entry is listed alongside its reported MIC.
measured metric: MIC (µg/mL)

| compound | target desc | measured metric | measurement units | endpoint value |
| --- | --- | --- | --- | --- |
| CCCCCCCCCCCCCCCC(=O)NCCNC1(C)CC(OC2C(Oc3c4cc5cc3Oc3ccc(cc3Cl)C(O)C3NC(=O)C(NC(=O)C5NC(=O)C(CC(N)=O)NC(=O)C(NC(=O)C(CC(C)C)NC)C(O)c5ccc(c(Cl)c5)O4)c4ccc(O)c(c4)-c4c(O)cc(O)cc4C(C(=O)O)NC3=O)OC(CO)C(O)C2O)OC(C)C1O (centres unmarked) | MRSA ATCC BAA 1556 (USA300) | MIC | µg/mL | 0.25 |
| CCCCCCCCCCCCNC(=O)CNC1(C)CC(OC2C(Oc3c4cc5cc3Oc3ccc(cc3Cl)C(O)C3NC(=O)C(NC(=O)C5NC(=O)C(CC(N)=O)NC(=O)C(NC(=O)C(CC(C)C)NC)C(O)c5ccc(c(Cl)c5)O4)c4ccc(O)c(c4)-c4c(O)cc(O)cc4C(C(=O)O)NC3=O)OC(CO)C(O)C2O)OC(C)C1O (centres unmarked) | MRSA ATCC BAA 1556 (USA300) | MIC | µg/mL | 0.031 |
| CNC(CC(C)C)C(=O)NC1C(=O)NC(CC(N)=O)C(=O)NC2C(=O)NC3C(=O)NC(C(=O)NC(C(=O)O)c4cc(O)cc(O)c4-c4cc3ccc4O)C(O)c3ccc(c(Cl)c3)Oc3cc2cc(c3OC2OC(CO)C(O)C(O)C2OC2CC(C)(NCCO)C(O)C(C)O2)Oc2ccc(cc2Cl)C1O (centres unmarked) | MRSA ATCC BAA 1556 (USA300) | MIC | µg/mL | 2 |
| CCCCCCCCCC(=O)NCCNC1(C)CC(OC2C(Oc3c4cc5cc3Oc3ccc(cc3Cl)C(O)C3NC(=O)C(NC(=O)C5NC(=O)C(CC(N)=O)NC(=O)C(NC(=O)C(CC(C)C)NC)C(O)c5ccc(c(Cl)c5)O4)c4ccc(O)c(c4)-c4c(O)cc(O)cc4C(C(=O)O)NC3=O)OC(CO)C(O)C2O)OC(C)C1O (centres unmarked) | MRSA ATCC BAA 1556 (USA300) | MIC | µg/mL | 0.063 |
| CCCCCCCCCCCCCCCCNC(=O)CNC1(C)CC(OC2C(Oc3c4cc5cc3Oc3ccc(cc3Cl)C(O)C3NC(=O)C(NC(=O)C5NC(=O)C(CC(N)=O)NC(=O)C(NC(=O)C(CC(C)C)NC)C(O)c5ccc(c(Cl)c5)O4)c4ccc(O)c(c4)-c4c(O)cc(O)cc4C(C(=O)O)NC3=O)OC(CO)C(O)C2O)OC(C)C1O (centres unmarked) | MRSA ATCC BAA 1556 (USA300) | MIC | µg/mL | 4 |
